Sourced from ChEMBL document CHEMBL3885861

Species on record: Rattus norvegicus
Test: Open TG-GATES - Regimen: Daily Repeat
Format: toxicity, organism-based, Sprague-Dawley
Parameters: regimen Daily Repeat, gender Male, age 6 weeks
Conditions: in vivo, po, 100 mg/kg, […], tissue Plasma, route gavage, dose level Low, time 28 day
MEASURED PROPERTY: TG (mg/dL)

SAMPLE SMILES	MEASURED PROPERTY	RESULT
Cc1nnc2n1-c1ccc(Cl)cc1C(c1ccccc1Cl)=NC2	TG	125.4
COC(=O)C1=C(C)NC(C)=C(C(=O)OC)C1c1ccccc1[N+](=O)[O-]	TG	117.8
CN/C(=N/CCSCc1nc[nH]c1C)NC#N	TG	167.4
O=C(OC[C@H]1O[C@@H](OC(=O)c2cc(O)c(O)c(OC(=O)c3cc(O)c(O)c(O)c3)c2)[C@H](OC(=O)c2cc(O)c(O)c(OC(=O)c3cc(O)c(O)c(O)c3)c2)[C@@H](OC(=O)c2cc(O)c(O)c(OC(=O)c3cc(O)c(O)c(O)c3)c2)[C@@H]1OC(=O)c1cc(O)c(O)c(OC(=O)c2cc(O)c(O)c(O)c2)c1)c1cc(O)c(O)c(OC(=O)c2cc(O)c(O)c(O)c2)c1	TG	108
CCOc1ccc(NC(C)=O)cc1	TG	156
CNC(=C[N+](=O)[O-])NCCSCc1ccc(CN(C)C)o1	TG	107.2

* * *

Organism: Rattus norvegicus
Assay: Open TG-GATES - Regimen: Single
Type: toxicity, organism-based, Sprague-Dawley
Parameters: regimen Single, gender Male, age 6 weeks
Conditions: in vivo, po, 100 mg/kg, 6 h, tissue Plasma, route gavage, dose level Low
Measured TC by item
MEASURED PROPERTY: TC

COMPOUND	RESULT
CN/C(=N/CCSCc1nc[nH]c1C)NC#N [CIMETIDINE]	70.6 mg/dL
COC(=O)C1=C(C)NC(C)=C(C(=O)OC)C1c1ccccc1[N+](=O)[O-] [NIFEDIPINE]	86.4 mg/dL
O=C(OC[C@H]1O[C@@H](OC(=O)c2cc(O)c(O)c(OC(=O)c3cc(O)c(O)c(O)c3)c2)[C@H](OC(=O)c2cc(O)c(O)c(OC(=O)c3cc(O)c(O)c(O)c3)c2)[C@@H](OC(=O)c2cc(O)c(O)c(OC(=O)c3cc(O)c(O)c(O)c3)c2)[C@@H]1OC(=O)c1cc(O)c(O)c(OC(=O)c2cc(O)c(O)c(O)c2)c1)c1cc(O)c(O)c(OC(=O)c2cc(O)c(O)c(O)c2)c1 [TANNIC ACID]	86 mg/dL
Cc1nnc2n1-c1ccc(Cl)cc1C(c1ccccc1Cl)=NC2 [TRIAZOLAM]	78.6 mg/dL
CNC(=C[N+](=O)[O-])NCCSCc1ccc(CN(C)C)o1 [RANITIDINE]	73 mg/dL

* * *

Species on record: Rattus norvegicus
Assay: Open TG-GATES - Regimen: Daily Repeat
Assay type: toxicity, organism-based, Sprague-Dawley
Set-up: regimen Daily Repeat, gender Male, age 6 weeks
Conditions: in vivo, po, 0 mg/kg, […], tissue Blood, route gavage, dose level Control, time 7 day

MOLECULE	Fbg, mg/dL
NC1=NC(=O)C(c2ccccc2)O1 (configuration not stated)	286.6
CCCc1cc(=O)[nH]c(=S)[nH]1	232.4
CN(C)CCC(c1ccc(Cl)cc1)c1ccccn1 (configuration not stated)	323.4
O=C(OC[C@H]1O[C@@H](OC(=O)c2cc(O)c(O)c(OC(=O)c3cc(O)c(O)c(O)c3)c2)[C@H](OC(=O)c2cc(O)c(O)c(OC(=O)c3cc(O)c(O)c(O)c3)c2)[C@@H](OC(=O)c2cc(O)c(O)c(OC(=O)c3cc(O)c(O)c(O)c3)c2)[C@@H]1OC(=O)c1cc(O)c(O)c(OC(=O)c2cc(O)c(O)c(O)c2)c1)c1cc(O)c(O)c(OC(=O)c2cc(O)c(O)c(O)c2)c1	219.4
CN1C(=O)CCS(=O)(=O)C1c1ccc(Cl)cc1 (configuration not stated)	294.6
COC(=O)C1=C(C)NC(C)=C(C(=O)OC)C1c1ccccc1[N+](=O)[O-]	286.6
CNC(=C[N+](=O)[O-])NCCSCc1ccc(CN(C)C)o1	225.8
